tested on: A/California/07/2009 virus (H1N1; CA07); design: species or system BALB/c mice; conditions: mouse, in vivo
MEASURED_PROPERTY: Relative ratio of antibody titer to alum (compound/alum), primary screening

compound="O=C1/C(=C2\\Nc3ccc(S(=O)(=O)[O-])cc3C2=O)Nc2ccc(S(=O)(=O)[O-])cc21.[Na+].[Na+] [Indigo Carmine]" obs_value=1.50
compound=CCN(Cc1cccc(S(=O)(=O)[O-])c1)c1ccc(C(=C2C=CC(=[N+](CC)Cc3cccc(S(=O)(=O)[O-])c3)C=C2)c2ccccc2S(=O)(=O)[O-])cc1.[Na+].[Na+] obs_value=0.69
compound="CC(/C=C/C=C(C)/C=C/C(=O)O)=C\\C=C\\C=C(C)\\C=C\\C=C(C)\\C=C\\C(=O)O (stereo in doubt) [Norbixin]" obs_value=8.00

Entry source: patent US20240261398A1
